SYSTEM: soluble recombinant variant of human uPAR (suPAR) (human) (UniProt Q03405)
Sequence (Q03405 23-299, change not shown): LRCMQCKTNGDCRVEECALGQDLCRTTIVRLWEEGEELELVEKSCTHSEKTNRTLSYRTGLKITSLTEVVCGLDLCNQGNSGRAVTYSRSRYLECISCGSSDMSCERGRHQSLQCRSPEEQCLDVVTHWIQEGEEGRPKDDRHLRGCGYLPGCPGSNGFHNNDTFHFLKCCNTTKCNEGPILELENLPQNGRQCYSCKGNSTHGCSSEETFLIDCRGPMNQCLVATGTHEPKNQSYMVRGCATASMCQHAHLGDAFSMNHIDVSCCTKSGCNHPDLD
ASSAY: SPR (Biacore), ligand over immobilised neuramimidase-treated human suPAR
Non-standard residues stand in square brackets, D forms with d. No end group written: not given here. 1Nal = N[C@@H](Cc1cccc2ccccc12)C(=O)O; Cha = N[C@@H](CC1CCCCC1)C(=O)O; βAla = NCCC(=O)O
OBSERVATION_TYPE: Relative kdiss (relative to GFD)

Examples with answers:
binder="[dE][Cha]F[dS]YYLWS [AE115]" observation_type="Relative kdiss (relative to GFD)" measurement=11.9
binder="AEPMPHSLNFSQYLWYT (also called Clone 20) [AE78]" observation_type="Relative kdiss (relative to GFD)" measurement=72.1

[P] D[Cha]F[dS][dR]YL[1Nal]S [AE114]
[Q] AE120 (also: lactam at chain A 12 at chain B 10 to a chain's C-terminus) peptide 1: D[Cha]F[dS][dR]YLWSG[βAla]K peptide 2: D[Cha]F[dS][dR]YLWSG
### Prompt Identify the item whose Relative kdiss (relative to GFD) is the smaller number: P or Q Lab log: write the label of the selected item as the result.
### Response Q
(Q: 0.21, P: 4.2)
